Would you kindly list yeast fitness for each of these variants?
B1: tRNA (parent)
chain: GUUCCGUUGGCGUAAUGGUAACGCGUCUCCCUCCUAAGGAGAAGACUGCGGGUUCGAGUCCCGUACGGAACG

Variants of: B1
Experiment: yeast fitness relative to wild type (ratio to wild type); higher = fitter; tRNA-Arg(CCU), competitive growth, 37 C, YPD
This sample holds only a part of the variants without activity.

Can you share its yeast fitness? I mean this variant: GUACCGUUAGCGUGAUGGUAACGCGUCUCCCUCCUAAGGAGAAGACUGCGGGUUCGAGUCCCGUAUGGAACG [U3A G9A A14G C66U] 0.575

Tell me the measured yeast fitness of GUUCGGUUGGCGUGAUAGUAACGCGUCUCCCCCCUAAGGAGAAGACUGCGGGUUCCAGUGCCGUACGGAACG [C5G A14G G17A U32C G56C C60G] , please. 0.554

What yeast fitness value was documented for this variant, GGUCCAUUGGCGUAAUGGUAACGCGUGUCCCUCCUAAGGAGAAGACUGCGGGUCCGAGUCCUGUACGGAACG [U2G G6A C27G U54C C62U] ? ≤ 0.5

Give the measured yeast fitness of GUUCGGUUGGCGUAAUGGUGACGCGUCUCCCUCCUGAGGAGAAGACUGCGGGUUCGAGUCCCGUAAGGAACG [C5G A20G A36G C66A] . ≤ 0.5

Bench note: what yeast fitness did GUUCCGUUGGCGUAUUGGUAAGGCGUCUCCUCCCUAAGGAGAAGACUGCGGGUUCGCGUCCCGAACGAAACG [A15U C22G C31U U32C A57C U64A G68A] show? ≤ 0.5

Fill blank: measured yeast fitness of the variant GUUCCGUUGGCGUAAUGGUAACGCGUGACGUUCCUAAGGAGAAGACUGCGGGUUCGAGUCCCGUACGCACCG [C27G U28A C30G C31U G68C A70C] is ____. ≤ 0.5

Given the entry GGUCCGUUGGCGCAAUGGUAGCGCGUCUCCCUCCAAAGGAGAAGACUGCGGGUUUGAGUCCCGUACGGAGCG [U2G U13C A21G U35A C55U A70G] , report its measured yeast fitness. ≤ 0.5
